# Tested on: MDA-MB-231 breast
# test_name: NCI tumour cell line growth inhibition, 48 h
TGI by entry:
Dear colleague, please return just the value in µM, with no unit written.

See these solved cases before continuing.
• CN1CC2=C(NC(=S)NC2c2ccc(Cl)cc2)/C(=C/c2ccc(Cl)cc2)C1 (centres undefined) = 39.8
• CC(C)C[C@H](NC(=O)CCc1ccccc1)B(O)O = 36.2
• N=C(N)c1ccc(-c2ccc(-c3ccc(Cl)cn3)s2)cc1 = 3.02
• COc1cc(OC)c(OC)cc1/C=C1\C=Cc2ccccc21 = 50.9
• COc1ccc(-n2c3c(c4cc(O)ccc42)C(=O)c2ccccc2C3=O)cc1 = 13.6

Problem: State TGI on MDA-MB-231 breast. Entry: COC(=O)[C@@H](Cc1c[nH]c2ccccc12)NC(=O)/C=C/c1ccccc1
Solution: 8.63

Problem: State TGI on MDA-MB-231 breast. Entry: COc1cccc(Cn2cc3c(c2)-c2oncc2CC3)c1
Solution: 96.8
